# ASSAY NOTES: LAP4-GFP expression modulators in yeast, confirmation, cell-based, cherry picks, flow cytometry, mother/daughter gates (AID 2271);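 further: ratio of sample to DMSO plate mean so 100% equals DMSO level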
# CONDITIONS: S. cerevisiae LAP4-GFP strain, 3 h, measured here: daughter cell gate response, at 10 µM, stronger effect = higher value, 100 means same as DMSO control
MEASUREMENT LABEL: GFP response relative to DMSO (%)

COC(=O)c1ccccc1NC(=O)c1nc(S(=O)(=O)Cc2ccccc2)ncc1Cl | 92.5
O=C(CCc1ccc(S(=O)(=O)N2CCOCC2)cc1)Oc1ccccc1 | 112
CCOC(=O)c1cc(S(=O)(=O)N2CCN(C(=O)OCC)CC2)cn1C | 100
O=C(Nc1nc(-c2ccc(Cl)s2)cs1)c1cccs1 | 107
Cc1cccc(N2C(=O)CC(Sc3nc(C)c4c(n3)CCCC4)C2=O)c1 (stereo not drawn) | 94.4
Cc1[nH][nH]c(=O)c1C(c1ccc(N(C)C)c(Br)c1)c1c(C)[nH][nH]c1=O | 115
CCCCNC(=O)c1ccc2c(SCC(=O)O)c3c(nc2c1)CCCC3 | 104
CCNC(=O)c1c(O)c2cccc3c2n(c1=O)CC3 | 101
COc1ccccc1OCCCc1c(C)n[nH]c1C | 104
CC1(C)CC(=O)C2=C(C1)OC1=C(C(=O)CC(C)(C)C1)C2c1ccc(O)cc1O | 139
CCn1cc(/C=C/c2cc[n+](C)cc2)c2ccccc21 | 119
Cc1c(NC(=O)/C(C#N)=C/c2c(N3CCCCC3)nc3ccccn3c2=O)c(=O)n(-c2ccccc2)n1C | 94.4
O=C(/C=C/c1ccccc1)Nc1ncn[nH]1 | 125
CC(C)(C)C1=CC=C(C(C)(C)C)C(=O)C1=O | 131
COc1ccc(OC(=O)c2cccc(S(=O)(=O)N3CCCC3)c2)cc1 | 91.2
COc1ccccc1-c1nnc(NC(=O)c2ccc3c(c2)OCO3)s1 | 84.8
Oc1ccc(N=Nc2ccccc2)o1 | 153
Nc1cccnc1S(=O)(=O)c1cccc(C(F)(F)F)c1 | 97.6
O=C(O)c1ccccc1SC1CC(=O)N(c2ccc3c(c2)OCO3)C1=O (stereo not drawn) | 102
CC(=O)Oc1c(C)cc(Cl)cc1C(=O)Nc1ccc([N+](=O)[O-])cc1Cl | 92
CCNC(=O)c1ccccc1-c1nc(-c2ccccc2Cl)no1 | 97.5
C/C(=N\NC(=O)c1ccc(Br)cc1)c1ccccc1 | 99.2
CC[n+]1cc(C)ccc1/C=C/c1ccc(N(C)C)cc1 | 138

---

# ASSAY NOTES: AGP1-GFP expression modulators, hit retest, confirmation, cell-based, flow cytometry, S. cerevisiae, cherry picks (AID 2273);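 further: median GFP channel fluorescence over the whole cell population gate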
# CONDITIONS: S. cerevisiae AGP1-GFP strain, 3 h, at 10 µM
MEASUREMENT LABEL: GFP response, % of DMSO (%)

CCCOc1ccc(C(=O)NNC(=S)NC(=O)CC)cc1 | 130
CCCN1CCN(C(=O)c2oc3ccccc3c2NC(=O)COc2ccc(OC)cc2)CC1 | 98.1
CS(=O)(=O)N1CCc2cc(C(=O)Nc3ccc(COCC(F)(F)F)cc3)ccc21 | 96.1
O=C(/C=C/c1c(F)cccc1Cl)c1ccc(F)cc1 | 104
CSC1=NC(=O)/C(=C/c2ccc(SC)cc2)S1 | 107
Oc1ccc(Br)cc1/C=N/Nc1ccccn1 | 91
Cc1cc(C)c2c(c1)/C(=C/C(=O)c1ccc(Br)s1)C(=O)N2 | 97.8
Cc1ccc(/C=C2/SC(=S)N(C3CCCCC3)C2=O)o1 | 106
CCOC(=O)c1ccc(NC(=O)CCc2nc(-c3ccccc3)no2)cc1 | 99.3
Cc1cc(N2CCOCC2)n2nc(C)c(-c3ccccc3)c2n1 | 101
COC(=O)Cn1cc(/C=C/[N+](=O)[O-])c2ccccc21 | 103
CCOc1ccccc1N1CCN(C(=O)c2cccc(-c3ccc(O)cc3)c2)CC1 | 92.4
O=C(Oc1c(Cl)cc(Cl)c2cccnc12)c1ccco1 | 95.9
O=C(CSc1ccc(-c2ccccn2)nn1)N1CCCCC1 | 103
c1ccc2oc(SCc3nc4ccccc4s3)nc2c1 | 95
Cc1cc(Cl)ccc1N1C(=O)CC(SCCC(=O)O)C1=O (centres undefined) | 97.8
O=C(O)c1ccn2c(C(=O)c3ccc(Cl)cc3)c(-c3ccccc3)cc2c1 | 94.7
CSc1nc2ccc(S(=O)(=O)N3CCCC3)cc2s1 | 94.1
CCOC(=O)Cc1csc(NC(=O)c2sc3nc4c(C)cc(C)cc4cc3c2N)n1 | 97.2
O=C1c2ccsc2SCCN1Cc1ccc(F)cc1 | 97.3
Cc1ccc(N2C(=O)C3C4C=CC(CNC(=S)Nc5ccc(F)cc5)(O4)C3C2=O)cc1 (centres undefined) | 105
N#C/C(=C\c1ccccn1)c1nc2ccccc2s1 | 205
CCOC(=O)/C(=N\NC(=O)c1ccccc1)c1ccccc1 | 96.5
O=S(=O)(c1ccc(Cl)cc1)c1ccccn1 | 98.2

---

GFP response vs DMSO overview
# ASSAY NOTES: RPL19A-GFP modulators, yeast TOR pathway, confirmation, cell-based, S. cerevisiae, flow cytometry, cherry picks, mother/daughter gates (AID 2270)
# CONDITIONS: S. cerevisiae RPL19A-GFP strain, 3 h, measured here: daughter cell gate, at 10 µM, stronger effect = lower value, 100 = same GFP as DMSO wells
MEASUREMENT LABEL: GFP response vs DMSO (%)

OC1(c2ccc(F)cc2)CSC(=Nc2cccnc2)N1Cc1ccco1 (stereo not given) | 99.6
Cc1nnc(NC(=O)c2ccc(S(=O)(=O)N3CCCCCC3)cc2)o1 | 99.3
CCCCc1[nH]nc2c1C1(C(=O)N(CC)c3ccccc31)C(C#N)=C(N)O2 (stereo not given) | 101
CCN(CC)CCN(C(=O)c1ccc2c(c1)CCCC2)c1nc2cc(OC)c(OC)cc2s1 | 96
O=C(NNC(=S)NC(=O)c1ccco1)c1ccc(F)cc1 | 106
NS(=O)(=O)c1ccc(Sc2ccccn2)c([N+](=O)[O-])c1 | 98.6
O=C1c2ccccc2C(=O)C2OC12 (stereo not given) | 99.6
NC(N)=N/N=C/c1ccc(OCc2ccc(Cl)cc2Cl)cc1 | 82.8
Cc1[nH]n(-c2ccccc2)c(=O)c1/C=N/Nc1nncc(-c2ccccc2)n1 | 85.8
C=CCOc1cccc(C(=O)/C=C2/C(=O)Nc3ccccc32)c1 | 97.9
COc1ccc(/C(C)=N/NC(=O)c2ccc(N(C)C)cc2)cc1 | 102
CCC(C)(C)NC(=O)C(c1cccs1)N(CC1CCCO1)C(=O)Cn1nnc2ccccc21 (stereo not given) | 95.9
CCc1ccc(NC(=O)c2nc(S(=O)(=O)Cc3ccccc3)ncc2Cl)cc1 | 94.2
O=C(NC(=S)NNC(=O)[C@H]1C[C@@H]1c1ccccc1)c1cccc(F)c1 | 115
CCOC(=O)Cc1csc(NC(=O)c2sc3nc4c(C)cc(C)cc4cc3c2N)n1 | 96.7
COc1cc(NC(=O)c2ccccc2F)ccc1NC(=O)c1cc2ccccc2o1 | 90.2
O=C(c1ccccc1Br)N1CCN(c2ccccc2)CC1 | 106
COc1cccc(C(=O)Nc2ccc(C)cc2)c1 | 99.9
CN1c2ccsc2/C(=N/Nc2ccc(F)cc2)CS1(=O)=O | 99.6
C=CCOc1ccc(C(=O)/C=C2/C(=O)Nc3ccccc32)cc1 | 93.6
CS(=O)(=O)Nc1ccc(C2=NN(S(C)(=O)=O)C(c3ccc4c(c3)OCO4)C2)cc1 (stereo not given) | 98.4
CCN(CC)CCNC(=O)Cn1c(-c2ccccn2)nc2ccccc21 | 98.1
Cc1ccc(-c2csc(NC(=O)c3cccs3)n2)cc1 | 93.9
Cc1ccc(-c2nn(C(C)(C)C)c3ncnc(N)c23)cc1 | 43.7
CC(=O)Oc1ccc(N2C(=O)C3C4C=CC(O4)C3C2=O)cc1 (stereo not given) | 99.1
CCCc1cc(=O)n(-c2nc3ccccc3s2)[nH]1 | 102
CCc1ccc(CNC(=O)CCC(=O)N2Cc3cccc(OC)c3Oc3ncccc32)cc1 | 98.8
CC1=NNC(=O)/C1=C\c1cn(-c2ccccc2)nc1-c1ccccc1 | 82.8
COc1ccc(N2CCN(C(=O)C3CCCN(S(=O)(=O)c4ccc(C)cc4)C3)CC2)cc1 (stereo not given) | 97.4
COc1cc(NC(=O)C(C)C)ccc1NC(=O)c1cc2ccccc2o1 | 99.8
COC(=O)CNc1c(-c2ccccn2)nc2ccc(Br)cn12 | 103
N#C/C(=C\c1c(N(Cc2ccccc2)Cc2ccccc2)nc2ccccn2c1=O)C(N)=O | 99.2
Cc1cc(C=C2C(=O)c3ccccc3C2=O)c(C)n1-c1cccc(C(=O)O)c1 | 101
O=C(NCCCSc1ccccc1)c1cc(Br)ccc1O | 97.1
CCOc1ccc(C(=O)/C=C/c2ccc(SC)cc2)cc1 | 100
Fc1ccc(/C=N/Nc2nc(-c3cccnc3)nc3ccccc23)cc1 | 92.5
O=C(O)c1ccc2c3c(ncnc13)-c1ccccc1C2=O | 95.3
CCOC(=O)c1cnn(-c2cc(C)nc3c(-c4ccccc4)c(C)nn23)c1N | 97.4
Cc1ccc(S(=O)(=O)CC#CCOC(=O)c2ccc([N+](=O)[O-])cc2)cc1 | 107
Cc1ccc(C2CC(c3ccco3)=NN2S(C)(=O)=O)cc1 (stereo not given) | 97
Cc1ccc(CS(=O)(=O)c2ncc(Cl)c(C(=O)Nc3nnc(C(C)C)s3)n2)cc1 | 96.1
CCc1nnc(NC(=O)c2ccc(S(=O)(=O)N(CCOC)CCOC)cc2)o1 | 94.4
Cc1ccc(C(=O)Sc2cccccc2=O)cc1 | 99.4
N/C(Cc1ccc(Cl)c(Cl)c1)=N\OC(=O)c1cccs1 | 89.4
c1ccc(Cn2ncc3ccccc32)cc1 | 101
